This collection of values is drawn from patent US10159687B2.

- assay-overview: Light stability in MCT oil (HPLC % area)
- Type: physicochemical
- test-conditions: light exposure 3 d
parameter-measured: Purity after 3 d (%)

compound	units-of-measure	readout-value
CCC(=O)Oc1c(C)c(C/C=C(\C)CC/C=C(\C)CC/C=C(\C)CC/C=C(\C)CC/C=C(\C)CC/C=C(\C)CCC=C(C)C)c(OC(=O)CC)c2ccccc12	%	93.8
CC(C)=CCC/C(C)=C/CC/C(C)=C/CC/C(C)=C/CC/C(C)=C/CC/C(C)=C/CC/C(C)=C/Cc1c(C)c(O)c2ccccc2c1OC(=O)c1ccccc1	%	53.3
CC(C)=CCC/C(C)=C/CC/C(C)=C/CC/C(C)=C/CC/C(C)=C/CC/C(C)=C/CC/C(C)=C/CC1=C(C)C(=O)c2ccccc2C1=O [MK-7, reference compound]	%	32.2
CCOP(=O)(OC/C=C(\C)CC/C=C(\C)CC/C=C(\C)CC/C=C(\C)CC/C=C(\C)CC/C=C(\C)CCC=C(C)C)Oc1c(CC)c(C)c(OC(=O)c2ccccc2)c2ccccc12 (centres unmarked)	%	81.5
CC(C)=CCC/C(C)=C/CC/C(C)=C/CC/C(C)=C/CC/C(C)=C/CC/C(C)=C/CC/C(C)=C/Cc1c(C)c(OC(=O)c2ccc(C(F)(F)F)cc2)c2ccccc2c1OC(=O)c1ccc(C(F)(F)F)cc1	%	79.6
